I'd appreciate it if you could supply inhibition values for the items below.
- EXPERIMENT_NOTES: inhibitors of E-selectin induction by TNFa, primary screen, imaging, HUVEC, immunofluorescence, MLSMR starter and 10KST1 sets (AID 487);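 also: signal is fraction of cell area covered by stained E-selectin grains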
- CONDITION_INFO: HUVEC TNFalpha-induced E-selectin immunofluorescence imaging, at 2 µM; stronger effect = higher value
Calls of active or inactive are those of the source.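 The calls were made as follows: active = visually confirmed hit in the image check and inhibition above 20%; inconclusive = visually confirmed hit but inhibition not above 20%; inactive = no visual hit in the image check.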

Query: Entry O=C(C1=C(O)C(=O)N(CCCN2CCOCC2)C1c1ccccn1)c1cccs1 (stereo unspecified) : reported inhibition = ?
Result: -117% (inactive)

Query: Entry CC(C(=O)N1CCOCC1)N1C(=O)c2ccccc2C1=O (stereo unspecified) : reported inhibition = ?
Result: -45.1% (inactive)

Query: Entry CCOC(=O)c1cc(C)n(-c2ccc(OC)c(OC)c2)c1C : reported inhibition = ?
Result: -25.1% (inactive)

Query: Entry CCOCCSc1nc2c(c(=O)[nH]c(=O)n2C)n1CCCc1ccccc1 : reported inhibition = ?
Result: -80.2% (inactive)

Query: Entry CCCn1c(=O)[nH]c(=O)c2[nH]cnc21 : reported inhibition = ?
Result: -98.8% (inactive)

Query: Entry NC(N)=NS(=O)(=O)c1ccc(N)cc1 : reported inhibition = ?
Result: -107% (inactive)

Query: Entry CCN1CCc2c(C#N)c(N3CCOCC3)nc(NCc3ccccc3)c2C1 : reported inhibition = ?
Result: -218% (inactive)

Query: Entry CC1=C(C)C(=O)C(CCCCC#CCCCC#CCO)=C(C)C1=O : reported inhibition = ?
Result: -112% (inactive)

Query: Entry C=C(C)CN1CCN(c2c(CCC#N)c(C)c(C#N)c3nc4ccccc4n23)CC1 : reported inhibition = ?
Result: -77% (inactive)

Query: Entry Cc1cc(C)n(CC2CC(=O)N(c3ccc(Cl)c(Cl)c3)C2=O)n1 (stereo unspecified) : reported inhibition = ?
Result: -50.6% (inactive)

Query: Entry CC1(C)CN(O)CCN1O : reported inhibition = ?
Result: -130% (inactive)

Query: Entry C=CCn1c(SCC(=O)NC23CC4CC(CC(C4)C2)C3)nc(O)cc1=O : reported inhibition = ?
Result: -39.7% (inactive)

Query: Entry Cc1cc(=O)oc2cc(OCCSCCN3CCOCC3)ccc12 : reported inhibition = ?
Result: -171% (inactive)

Query: Entry NC(N)=NC(=O)c1nc(Cl)c(N)nc1N : reported inhibition = ?
Result: -76.7% (inactive)

Query: Entry C=CCNc1nc(-c2ccc(O)c(C(N)=O)c2)cs1 : reported inhibition = ?
Result: -37.4% (inactive)

Query: Entry COc1ccc(C(=O)Nc2cccnc2)cc1C(=O)Nc1cccnc1 : reported inhibition = ?
Result: -4.7% (inactive)

* * *

I'd appreciate it if you could supply z-score values for the items below.
- EXPERIMENT_NOTES: DUSP6 inhibitors restoring Erk phosphorylation by chemical complementation, primary imaging in DUSP6-transfected HeLa (AID 609)
- CONDITION_INFO: HeLa MKP-3 transfected, phospho-Erk imaging KS statistic; measured here: nuclear pErk red intensity z-score; at 10 µM; stronger effect = higher value; cells stimulated with TPA for 15 min
I'd appreciate a reply containing only the number, no unit.

Query: Entry CC(=O)OCC(=O)[C@@]1(O)[C@H](C)C[C@H]2[C@@H]3CCC4=CC(=O)C=C[C@]4(C)[C@@]3(F)[C@@H](O)C[C@@]21C : reported z-score = ?
Result: -0.569

Query: Entry COc1ccc(/C(O)=C2/C(=O)C(=O)N(CCN3CCOCC3)C2c2ccccn2)cc1 (stereo unspecified) : reported z-score = ?
Result: 1.18

Query: Entry O=c1c(-c2ccc3c(c2)OCCO3)c(C(F)(F)F)oc2cc(O)cc(O)c12 : reported z-score = ?
Result: -0.0254

Query: Entry Cc1noc(NS(=O)(=O)c2ccc(NC(=O)COc3ccccc3)cc2)c1C : reported z-score = ?
Result: -0.0095

Query: Entry CCCOc1ccc(C(C)=O)cc1CSCCC#N : reported z-score = ?
Result: 0.779

Query: Entry Cc1nc2sc3c(c2c(=O)o1)CC(C)(C)OC3 : reported z-score = ?
Result: -1.12

Query: Entry Cc1ccc(C2/C(=C(/O)c3cnn(-c4ccccc4)c3C)C(=O)C(=O)N2CCN2CCOCC2)o1 (stereo unspecified) : reported z-score = ?
Result: -0.672

Query: Entry CN(C)CCCOC(=O)C1c2ccccc2Oc2ccccc21 : reported z-score = ?
Result: 0.0446

Query: Entry N#CC(C(=O)NC1CC1)c1nc2ccccc2nc1N1CCN(C/C=C/c2ccccc2)CC1 (stereo unspecified) : reported z-score = ?
Result: 1.69

Query: Entry CCCOc1ccc(Cn2c(O)cc(=O)[nH]c2=O)cc1 : reported z-score = ?
Result: 0.279

Query: Entry CC1(C)Cc2c(sc3nc4n(c(=N)c23)CCC4)CO1 : reported z-score = ?
Result: 2.19

* * *

- EXPERIMENT_NOTES: DUSP6 inhibitors restoring Erk phosphorylation by chemical complementation, primary imaging in DUSP6-transfected HeLa (AID 609)
- CONDITION_INFO: HeLa MKP-3 transfected, phospho-Erk imaging KS statistic; measured here: nuclear c-Myc green intensity z-score; at 10 µM; cells stimulated with TPA for 15 min
I'd appreciate it if you could supply z-score values for the items below.

Query: Entry O=C(c1ccc(=O)oc1)N1CCOCC1 : reported z-score = ?
Result: -0.649

Query: Entry CC(=O)O[C@]1(C(C)=O)CC[C@H]2[C@@H]3C[C@H](C)C4=CC(=O)CC[C@]4(C)[C@H]3CC[C@@]21C : reported z-score = ?
Result: -0.458

Query: Entry CC(=O)C(=[N+]=[N-])C(=O)NCc1ccccc1 : reported z-score = ?
Result: -1.15

Query: Entry COC(=O)C1=C(C)NC(C)=C(C(=O)OC)C1c1ccccc1[N+](=O)[O-] : reported z-score = ?
Result: 0.789

Query: Entry CN(C)CC(O)COc1ccc(-c2ccc(C#N)cc2)cc1 (configuration not stated) : reported z-score = ?
Result: -0.472

Query: Entry Cc1cc(C(F)(F)F)c(C#N)c(SCC(=O)NC2CC2)n1 : reported z-score = ?
Result: -0.242

Query: Entry Oc1c(I)cc(I)c2cccnc12 : reported z-score = ?
Result: -1.99

Query: Entry Oc1c(C=NCc2ccncc2)sc2ccccc12 : reported z-score = ?
Result: 0.688

Query: Entry COCCCNC(=O)c1c(N)n(/N=C/c2cccs2)c2nc3ccccc3nc12 : reported z-score = ?
Result: -0.623

Query: Entry COc1ccc2c(c1)[nH]c1c(=O)n(CC3CCCO3)cnc12 (configuration not stated) : reported z-score = ?
Result: -0.546

Query: Entry COC(=O)c1ccc(C2C(C(=O)c3cc4ccccc4o3)=C(O)C(=O)N2CCCN(C)C)cc1 (configuration not stated) : reported z-score = ?
Result: 1.47

Query: Entry CC1(C)CC(=O)C(C=NCCN2CCN(C(=O)C34CC5CC(CC(C5)C3)C4)CC2)=C(O)C1 : reported z-score = ?
Result: 0.612

Query: Entry CC(=O)[C@@]1(O)CC[C@H]2[C@@H]3CCC4=CC(=O)CC[C@]4(C)[C@H]3[C@@H](O)C[C@@]21C : reported z-score = ?
Result: -0.682

Query: Entry Cc1cc(C)n(CC(=O)n2nc(C)cc2C)n1 : reported z-score = ?
Result: 0.17

Query: Entry COc1cc(C)nc(Oc2ccc(OCCOc3ccc(C)cc3)nn2)n1 : reported z-score = ?
Result: -0.102

Query: Entry CC(C)c1nc(N2CCOCC2)c(C#N)c2c1CCC2 : reported z-score = ?
Result: -0.974

Query: Entry Cc1nc2c(o1)CCc1ccccc1C2O (configuration not stated) : reported z-score = ?
Result: -1.58

Query: Entry c1ccc(-c2nnc(OCCN3CCOCC3)c3ccccc23)cc1 : reported z-score = ?
Result: 0.289

Query: Entry CN(CC(O)COc1ccc(OCC(O)CN(C)C2CCCCC2)cc1)C1CCCCC1 (configuration not stated) : reported z-score = ?
Result: 0.402

Query: Entry CC(C)(C)NCC(O)COc1cccc2c1C[C@H](O)[C@H](O)C2 (some centres not stated) : reported z-score = ?
Result: 0.144

Query: Entry CN(CCO)CC(O)Cn1cnc2c1c(=O)n(C)c(=O)n2C (configuration not stated) (tested in a mixture with another compound) : reported z-score = ?
Result: 0.0927

Query: Entry COc1ccc(C2=Nn3c(nnc3-c3cccnc3)SC2)cc1OC : reported z-score = ?
Result: 0.48

Query: Entry Cc1ccc(Cn2ncc3c(N4CCN(c5ccc(C)cc5)CC4)ncnc32)cc1 : reported z-score = ?
Result: 0.779

Query: Entry CCN(CC)CCN1C(=O)C(=O)/C(=C(/O)c2ccc(OC(C)C)cc2)C1c1ccncc1 (configuration not stated) : reported z-score = ?
Result: -0.46

Query: Entry O=C(CNC1C(=O)Nc2ccccc21)Sc1ccccc1 (configuration not stated) : reported z-score = ?
Result: -0.106

Query: Entry N#Cc1nc(-c2cccs2)oc1NCCN1CCOCC1 : reported z-score = ?
Result: 0.0167

Query: Entry Fc1cc(F)c(F)c(SCCc2ccncc2)c1F : reported z-score = ?
Result: 0.923

Query: Entry Cc1ccc(SCc2[nH]nc3c2C(c2ccc(C)o2)C(C#N)=C(N)O3)cc1 (configuration not stated) : reported z-score = ?
Result: 1.82

Query: Entry Clc1ccc2c(c1)C(N1CCNCC1)=Nc1ccccc1O2 : reported z-score = ?
Result: -0.679

Query: Entry CC(C)(C)NCC(O)c1cc(O)cc(O)c1 (configuration not stated) : reported z-score = ?
Result: -3

Query: Entry CN1C(=S)SC(N(O)C(=O)Nc2ccccc2)C1(C)C (configuration not stated) : reported z-score = ?
Result: -0.73

Query: Entry CC(C)OC(=O)c1sc2nc3c(cc2c1N)C(=O)CCC3 : reported z-score = ?
Result: -1.25
